Test system: MDAMB231
test.protocol: Cell proliferation assay (Alamar Blue)
Format: cell-based
test.conditions: Homo sapiens, MDA-MB-231, 96 h, MDAMB231 cells, four days
Let's look at some molecules and their measured IC50.

Here is how some molecules turned out for IC50.
O=C(O)c1ccc2c(c1)nc(Nc1ccccc1)c1nc(NCCCO)ncc12 [drawing 393]: 48.2 µM
CC(C)Nc1ncc2c(n1)c(Nc1cccc(Cl)c1)nc1cc(C(=O)O)ccc12 [drawing 411]: 20.8 µM
CCOc1ncc2c(n1)c(Nc1cccc(C(F)(F)F)c1)nc1cc(C(=O)O)ccc12 [drawing 407]: 26.5 µM

Attention now turns to another entry.
Query string: What IC50 value was documented for this molecule, O=C(O)c1ccc2c(c1)nc(Nc1ccc(F)c(Cl)c1)c1nc(NC3CC3)ncc12 [drawing 416] ?
Result string: 7.12 µM

Values from patent EP2061765B1
